target: Platelet-derived growth factor receptor beta (Homo sapiens); experiment: Inhibition of PDGFRbeta in human SF539 cells by phosphotyrosine cell-based ELISA
Sequence (P09619 whole entry): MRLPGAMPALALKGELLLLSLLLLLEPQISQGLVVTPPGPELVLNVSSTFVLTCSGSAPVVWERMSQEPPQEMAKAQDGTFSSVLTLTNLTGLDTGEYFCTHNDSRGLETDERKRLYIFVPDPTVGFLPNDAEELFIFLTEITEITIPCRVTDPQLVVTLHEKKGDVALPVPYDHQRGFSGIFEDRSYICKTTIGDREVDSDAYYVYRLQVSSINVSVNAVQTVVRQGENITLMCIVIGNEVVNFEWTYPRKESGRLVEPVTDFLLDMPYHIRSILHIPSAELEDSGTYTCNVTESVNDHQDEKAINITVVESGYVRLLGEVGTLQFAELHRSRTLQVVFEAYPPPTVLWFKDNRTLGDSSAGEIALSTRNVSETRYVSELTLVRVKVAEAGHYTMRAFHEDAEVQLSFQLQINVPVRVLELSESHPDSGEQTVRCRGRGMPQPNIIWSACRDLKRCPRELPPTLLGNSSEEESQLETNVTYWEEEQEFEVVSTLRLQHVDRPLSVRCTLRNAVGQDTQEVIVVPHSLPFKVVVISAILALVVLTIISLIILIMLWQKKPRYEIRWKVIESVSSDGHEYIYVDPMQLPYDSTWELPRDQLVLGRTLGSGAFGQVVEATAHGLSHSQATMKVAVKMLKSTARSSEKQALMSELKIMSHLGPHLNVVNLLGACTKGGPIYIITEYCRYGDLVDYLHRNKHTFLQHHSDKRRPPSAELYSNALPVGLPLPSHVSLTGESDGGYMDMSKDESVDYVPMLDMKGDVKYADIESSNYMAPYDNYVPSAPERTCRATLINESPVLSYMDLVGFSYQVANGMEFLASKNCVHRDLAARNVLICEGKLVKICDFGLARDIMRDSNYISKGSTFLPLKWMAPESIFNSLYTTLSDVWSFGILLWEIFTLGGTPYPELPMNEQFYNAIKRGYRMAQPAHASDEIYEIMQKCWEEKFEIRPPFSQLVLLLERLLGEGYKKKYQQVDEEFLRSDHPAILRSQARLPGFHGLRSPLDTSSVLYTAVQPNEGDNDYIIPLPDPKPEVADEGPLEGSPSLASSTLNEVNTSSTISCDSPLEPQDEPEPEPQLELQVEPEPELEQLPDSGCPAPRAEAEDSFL
value type: pIC50
// field semantics: pIC50 = negative decimal log of concentration (mol/L)

-- ask Which pIC50 is reported for this compound? Cc1ccc(Sc2cccc3[nH]c4nc(N)nc(N)c4c23)cc1
-- reply 4.39

====

Give IC50 for every item shown.
molecular target: Receptor-type tyrosine-protein kinase FLT3 (Homo sapiens); assay: Inhibition of Flt3 activity in human […] cells by phosphotyrosine cell-based ELISA
Sequence (P36888 whole entry): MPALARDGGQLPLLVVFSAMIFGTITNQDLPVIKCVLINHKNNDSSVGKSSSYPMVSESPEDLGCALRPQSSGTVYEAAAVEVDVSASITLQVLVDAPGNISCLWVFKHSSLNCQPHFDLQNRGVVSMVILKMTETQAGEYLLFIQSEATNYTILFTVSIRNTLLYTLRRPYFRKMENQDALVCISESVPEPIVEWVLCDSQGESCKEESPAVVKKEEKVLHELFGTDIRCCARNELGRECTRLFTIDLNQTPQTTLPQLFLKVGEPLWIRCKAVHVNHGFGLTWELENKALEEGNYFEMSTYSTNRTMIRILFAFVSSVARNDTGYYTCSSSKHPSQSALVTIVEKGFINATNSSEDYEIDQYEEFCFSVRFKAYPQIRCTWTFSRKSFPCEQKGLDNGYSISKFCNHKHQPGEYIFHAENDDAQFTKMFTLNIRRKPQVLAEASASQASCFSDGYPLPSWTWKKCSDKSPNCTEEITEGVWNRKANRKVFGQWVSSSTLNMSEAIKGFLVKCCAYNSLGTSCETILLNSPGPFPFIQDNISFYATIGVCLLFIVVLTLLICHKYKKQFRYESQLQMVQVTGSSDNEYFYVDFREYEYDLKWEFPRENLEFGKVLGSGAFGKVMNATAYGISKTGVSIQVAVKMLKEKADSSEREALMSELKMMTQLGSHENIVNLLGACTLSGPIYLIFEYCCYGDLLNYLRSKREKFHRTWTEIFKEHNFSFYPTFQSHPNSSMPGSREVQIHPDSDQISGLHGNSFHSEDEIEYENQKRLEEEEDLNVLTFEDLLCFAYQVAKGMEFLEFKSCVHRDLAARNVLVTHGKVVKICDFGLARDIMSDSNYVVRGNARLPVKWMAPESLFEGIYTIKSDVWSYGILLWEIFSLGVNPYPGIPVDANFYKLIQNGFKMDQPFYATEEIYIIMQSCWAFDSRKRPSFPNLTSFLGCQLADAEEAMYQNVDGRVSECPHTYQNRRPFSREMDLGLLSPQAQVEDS
The response must be a number in µM with no trailing unit.

-- ask Quick one: IC50 of Cc1ccc(Sc2cccc3[nH]c4nc(N)nc(N)c4c23)cc1 ?
-- reply 39.6

-- ask Query: IC50; subject: COc1ccc(C(=O)Nc2sc3c(c2C(N)=O)CCCC3)cc1OC
-- reply 2.9

-- ask Fill in the blank: the reported IC50 of Nc1nc(N)c2c(n1)[nH]c1cccc(Sc3ccccc3)c12 is ____.
-- reply 41.2

====

molecular target: Vascular endothelial growth factor receptor 2 (Homo sapiens)
Sequence (P35968 whole entry): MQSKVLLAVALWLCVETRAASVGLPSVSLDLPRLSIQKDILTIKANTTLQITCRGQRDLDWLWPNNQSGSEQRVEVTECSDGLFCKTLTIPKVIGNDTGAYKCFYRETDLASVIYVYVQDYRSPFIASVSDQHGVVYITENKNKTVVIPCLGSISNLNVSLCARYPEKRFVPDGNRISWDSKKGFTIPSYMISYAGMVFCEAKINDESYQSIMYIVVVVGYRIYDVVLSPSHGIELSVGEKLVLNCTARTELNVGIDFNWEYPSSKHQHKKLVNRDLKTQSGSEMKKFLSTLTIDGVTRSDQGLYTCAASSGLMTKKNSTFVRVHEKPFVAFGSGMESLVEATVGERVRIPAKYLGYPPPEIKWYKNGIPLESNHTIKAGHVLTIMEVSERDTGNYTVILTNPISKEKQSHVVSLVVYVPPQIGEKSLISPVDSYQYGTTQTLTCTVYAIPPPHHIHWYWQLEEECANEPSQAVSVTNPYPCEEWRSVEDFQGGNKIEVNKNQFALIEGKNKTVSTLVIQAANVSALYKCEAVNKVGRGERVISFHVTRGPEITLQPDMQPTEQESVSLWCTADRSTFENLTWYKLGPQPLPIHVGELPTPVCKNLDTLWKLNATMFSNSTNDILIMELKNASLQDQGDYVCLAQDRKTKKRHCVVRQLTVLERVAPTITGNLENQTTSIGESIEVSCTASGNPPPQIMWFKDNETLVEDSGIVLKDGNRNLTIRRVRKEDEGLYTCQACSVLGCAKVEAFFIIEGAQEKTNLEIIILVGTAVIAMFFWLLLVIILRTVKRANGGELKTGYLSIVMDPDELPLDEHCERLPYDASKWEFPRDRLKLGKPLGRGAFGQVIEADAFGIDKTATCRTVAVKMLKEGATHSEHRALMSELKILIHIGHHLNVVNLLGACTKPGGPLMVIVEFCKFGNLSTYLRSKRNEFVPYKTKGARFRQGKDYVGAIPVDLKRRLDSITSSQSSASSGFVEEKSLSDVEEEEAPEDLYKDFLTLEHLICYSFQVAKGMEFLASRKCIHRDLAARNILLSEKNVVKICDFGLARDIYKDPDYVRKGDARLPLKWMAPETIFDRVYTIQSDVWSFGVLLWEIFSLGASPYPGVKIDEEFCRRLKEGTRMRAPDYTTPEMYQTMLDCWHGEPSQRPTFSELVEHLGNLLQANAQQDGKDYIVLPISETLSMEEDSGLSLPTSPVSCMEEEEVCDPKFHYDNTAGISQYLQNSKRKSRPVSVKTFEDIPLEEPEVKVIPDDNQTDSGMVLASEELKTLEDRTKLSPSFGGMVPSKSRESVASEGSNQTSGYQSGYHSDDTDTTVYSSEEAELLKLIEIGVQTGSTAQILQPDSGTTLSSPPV
value type: IC50
State the result as a value with its unit after it.

-- ask What measured IC50 goes with Cc1ccc(Sc2cccc3[nH]c4nc(N)nc(N)c4c23)cc1 ?
-- reply 56.3 µM
